Entries and their viability, T/C values follow.
- System: 324938-238-R-J1-PDC complex spheroids viability
- PROTOCOL_DETAILS: Anticancer human tumor 324938-238-R-J1-PDC patient-derived bladder carcinoma cell line growth inhibition [CLK]
- COND: second compound 0.316 µM; first compound 0.000949 µM; stronger effect = lower value
QUANTITY_MEASURED: viability, T/C (%)

COMPOUND	UNIT_INFO	OBSERVED
CC(C)CC(NC(=O)C(Cc1ccccc1)NC(=O)c1cnccn1)B(O)O (centres undefined) + CNC(=O)c1ccc(Nc2nc(OC3CCCC3)c3c(-c4ccc5nc(C)oc5c4)c[nH]c3n2)c(OC)c1	%	21.6
C=CC(=O)Nc1cc(Nc2nccc(-c3cn(C)c4ccccc34)n2)c(OC)cc1N(C)CCN(C)C + CN1CCN(c2cc(C(=O)Nc3cc4cc(-c5cnn(C)c5)ccc4cn3)ccn2)CC1	%	19.7
CC(C)CC(NC(=O)C(Cc1ccccc1)NC(=O)c1cnccn1)B(O)O (centres undefined) + CN1CCN(c2cc(C(=O)Nc3cc4cc(-c5cnn(C)c5)ccc4cn3)ccn2)CC1	%	11.1
C=CC(=O)Nc1cc(Nc2nccc(-c3cn(C)c4ccccc34)n2)c(OC)cc1N(C)CCN(C)C + CNC(=O)c1ccc(Nc2nc(OC3CCCC3)c3c(-c4ccc5nc(C)oc5c4)c[nH]c3n2)c(OC)c1	%	19

----------
- Test system: 324938-238-R-J1-PDC complex spheroids viability
- PROTOCOL_DETAILS: Anticancer human tumor 324938-238-R-J1-PDC cell line growth inhibition [CLK];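 further: viability read after seven days of drug exposure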;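 on viability, T/C: 100% = DMSO vehicle control wells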
- COND: second compound 1 µM; first compound 0.1 µM; stronger effect = lower value
Please use true for viability, T/C under 2% and false for everything else, ties included.

COMPOUND	CLASS_ASSIGNMENT
CC1(C)CCC(CN2CCN(c3ccc(C(=O)NS(=O)(=O)c4ccc(NCC5CCOCC5)c([N+](=O)[O-])c4)c(Oc4cnc5[nH]ccc5c4)c3)CC2)=C(c2ccc(Cl)cc2)C1 + CNC(=O)c1ccc(Nc2nc(OC3CCCC3)c3c(-c4ccc5nc(C)oc5c4)c[nH]c3n2)c(OC)c1	false
C=CC(=O)N1CCN(c2nc(=O)n(-c3c(C)ccnc3C(C)C)c3nc(-c4c(O)cccc4F)c(F)cc23)C(C)C1 (stereo not given) + CNC(=O)c1ccc(Nc2nc(OC3CCCC3)c3c(-c4ccc5nc(C)oc5c4)c[nH]c3n2)c(OC)c1	false
C=CC(=O)N1CCN(c2nc(=O)n(-c3c(C)ccnc3C(C)C)c3nc(-c4c(O)cccc4F)c(F)cc23)C(C)C1 (stereo not given) + CN1CCN(c2cc(C(=O)Nc3cc4cc(-c5cnn(C)c5)ccc4cn3)ccn2)CC1	true
COc1ccc([C@@H](O)c2cc(-c3ncnc4cc(N5CCOCC5)ccc34)c(F)cc2Cl)nn1 + CN1CCN(c2cc(C(=O)Nc3cc4cc(-c5cnn(C)c5)ccc4cn3)ccn2)CC1	true
COC1C=CCC(C)C(C)S(=O)(=O)NC(=O)c2ccc3c(c2)N(CC2CCC21)CC1(CCCc2cc(Cl)ccc21)CO3 (stereo not given) + CNC(=O)c1ccc(Nc2nc(OC3CCCC3)c3c(-c4ccc5nc(C)oc5c4)c[nH]c3n2)c(OC)c1	false
CCCS(=O)(=O)Nc1ccc(F)c(C(=O)c2c[nH]c3ncc(-c4ccc(Cl)cc4)cc23)c1F + CN1CCN(c2cc(C(=O)Nc3cc4cc(-c5cnn(C)c5)ccc4cn3)ccn2)CC1	true
CC1(C)CCC(CN2CCN(c3ccc(C(=O)NS(=O)(=O)c4ccc(NCC5CCOCC5)c([N+](=O)[O-])c4)c(Oc4cnc5[nH]ccc5c4)c3)CC2)=C(c2ccc(Cl)cc2)C1 + CN1CCN(c2cc(C(=O)Nc3cc4cc(-c5cnn(C)c5)ccc4cn3)ccn2)CC1	true
CC(CO)NC(=O)c1cc(-c2ccc(Cl)cc2)nn(-c2cnn(C)c2)c1=O (stereo not given) + CN1CCN(c2cc(C(=O)Nc3cc4cc(-c5cnn(C)c5)ccc4cn3)ccn2)CC1	true
COc1c(OCCCN2CCOCC2)ccc2c3n(c(=NC(=O)c4cnc(N)nc4)nc12)CCN3 + CNC(=O)c1ccc(Nc2nc(OC3CCCC3)c3c(-c4ccc5nc(C)oc5c4)c[nH]c3n2)c(OC)c1	false
O=c1[nH]cc(F)c(=O)[nH]1 + CN1CCN(c2cc(C(=O)Nc3cc4cc(-c5cnn(C)c5)ccc4cn3)ccn2)CC1	true

----------
- Test system: 324938-238-R-J1-PDC complex spheroids viability
- PROTOCOL_DETAILS: Anticancer human tumor 324938-238-R-J1-PDC cell line growth inhibition [CLK];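 further: viability read after seven days of drug exposure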;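 on viability, T/C: 100% = DMSO vehicle control wells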
- COND: second compound 3.16 µM; first compound 0.1 µM; stronger effect = lower value
Mark True only when viability, T/C stays strictly below 20%. Values equal to the cut-off are False.

MOLECULE	CLASS_ASSIGNMENT
O=C(c1cc(Cc2n[nH]c(=O)c3ccccc23)ccc1F)N1CCN(C(=O)C2CC2)CC1 + CNC(=O)c1ccc(Nc2nc(OC3CCCC3)c3c(-c4ccc5nc(C)oc5c4)c[nH]c3n2)c(OC)c1	True
CC(CO)NC(=O)c1cc(-c2ccc(Cl)cc2)nn(-c2cnn(C)c2)c1=O (stereo not given) + CNC(=O)c1ccc(Nc2nc(OC3CCCC3)c3c(-c4ccc5nc(C)oc5c4)c[nH]c3n2)c(OC)c1	True
CCN1CCN(Cc2ccc(Nc3ncc(F)c(-c4cc(F)c5nc(C)n(C(C)C)c5c4)n3)nc2)CC1 + CNC(=O)c1ccc(Nc2nc(OC3CCCC3)c3c(-c4ccc5nc(C)oc5c4)c[nH]c3n2)c(OC)c1	False
Nc1ccn(C2OC(CO)C(O)C2(F)F)c(=O)n1 (stereo not given) + CN1CCN(c2cc(C(=O)Nc3cc4cc(-c5cnn(C)c5)ccc4cn3)ccn2)CC1	True
C#Cc1c(F)ccc2cc(O)cc(-c3ncc4c(N5CC6CCC(C5)N6)nc(OCC56CCCN5CC(F)C6)nc4c3F)c12 (stereo not given) + CN1CCN(c2cc(C(=O)Nc3cc4cc(-c5cnn(C)c5)ccc4cn3)ccn2)CC1	True

----------
Recorded measurements of IC50, one per entry
- Tested on: 324938-238-R-J1-PDC complex spheroids viability
- PROTOCOL_DETAILS: Anticancer human tumor 324938-238-R-J1-PDC cell line growth inhibition [CLK];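 further: viability read after seven days of drug exposure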
- COND: curve of first compound; second compound 0.0316 µM

MOLECULE	TESTED_TARGET	UNIT_INFO	VALUE_OPERATOR	IC50
COC1C=CCC(C)C(C)S(=O)(=O)NC(=O)c2ccc3c(c2)N(CC2CCC21)CC1(CCCc2cc(Cl)ccc21)CO3 (stereo not given) + CN1CCN(c2cc(C(=O)Nc3cc4cc(-c5cnn(C)c5)ccc4cn3)ccn2)CC1	324938-238-R-J1-PDC complex spheroids viability	nM	=	440
CC(=O)O[C@H]1C(=O)[C@@]2(C)[C@H]([C@H](OC(=O)c3ccccc3)[C@]3(O)C[C@H](OC(=O)[C@H](O)[C@@H](NC(=O)c4ccccc4)c4ccccc4)C(C)=C1C3(C)C)[C@]1(OC(C)=O)CO[C@@H]1C[C@@H]2O + CNC(=O)c1ccc(Nc2nc(OC3CCCC3)c3c(-c4ccc5nc(C)oc5c4)c[nH]c3n2)c(OC)c1	324938-238-R-J1-PDC complex spheroids viability	nM	<	31.6
Nc1ccn(C2OC(CO)C(O)C2(F)F)c(=O)n1 (stereo not given) + CN1CCN(c2cc(C(=O)Nc3cc4cc(-c5cnn(C)c5)ccc4cn3)ccn2)CC1	324938-238-R-J1-PDC complex spheroids viability	nM	<	31.6
CC(CO)NC(=O)c1cc(-c2ccc(Cl)cc2)nn(-c2cnn(C)c2)c1=O (stereo not given) + CN1CCN(c2cc(C(=O)Nc3cc4cc(-c5cnn(C)c5)ccc4cn3)ccn2)CC1	324938-238-R-J1-PDC complex spheroids viability	nM	>	10000
CCCS(=O)(=O)Nc1ccc(F)c(C(=O)c2c[nH]c3ncc(-c4ccc(Cl)cc4)cc23)c1F + CNC(=O)c1ccc(Nc2nc(OC3CCCC3)c3c(-c4ccc5nc(C)oc5c4)c[nH]c3n2)c(OC)c1	324938-238-R-J1-PDC complex spheroids viability	nM	=	8550

----------
- Test system: 324938-238-R-J1-PDC complex spheroids viability
- PROTOCOL_DETAILS: Anticancer human tumor 324938-238-R-J1-PDC cell line growth inhibition [CLK]; active means viability on the fitted dose curve at most 10% of control; inactive means the rest;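 further: viability read after seven days of drug exposure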
- COND: second compound 10 µM; first compound 0.1 µM
Classes used: active, inactive

COMPOUND	CLASS_ASSIGNMENT
CCCS(=O)(=O)Nc1ccc(F)c(C(=O)c2c[nH]c3ncc(-c4ccc(Cl)cc4)cc23)c1F + CNC(=O)c1ccc(Nc2nc(OC3CCCC3)c3c(-c4ccc5nc(C)oc5c4)c[nH]c3n2)c(OC)c1	inactive
CC(CO)NC(=O)c1cc(-c2ccc(Cl)cc2)nn(-c2cnn(C)c2)c1=O (stereo not given) + CN1CCN(c2cc(C(=O)Nc3cc4cc(-c5cnn(C)c5)ccc4cn3)ccn2)CC1	active
CC1(C)CCC(CN2CCN(c3ccc(C(=O)NS(=O)(=O)c4ccc(NCC5CCOCC5)c([N+](=O)[O-])c4)c(Oc4cnc5[nH]ccc5c4)c3)CC2)=C(c2ccc(Cl)cc2)C1 + CNC(=O)c1ccc(Nc2nc(OC3CCCC3)c3c(-c4ccc5nc(C)oc5c4)c[nH]c3n2)c(OC)c1	inactive
COC1C=CCC(C)C(C)S(=O)(=O)NC(=O)c2ccc3c(c2)N(CC2CCC21)CC1(CCCc2cc(Cl)ccc21)CO3 (stereo not given) + CNC(=O)c1ccc(Nc2nc(OC3CCCC3)c3c(-c4ccc5nc(C)oc5c4)c[nH]c3n2)c(OC)c1	inactive
O=c1[nH]cc(F)c(=O)[nH]1 + CNC(=O)c1ccc(Nc2nc(OC3CCCC3)c3c(-c4ccc5nc(C)oc5c4)c[nH]c3n2)c(OC)c1	inactive
